Provide the reported GI50 of each item.
Tested on: SN12C
Protocol notes: NCI tumour cell line growth inhibition, 48 h
Activity calls are given as the source filed them. No stated cut-off is given here; in the data, active = GI50 up to about 1.1 µM and inactive = higher.

Example entries begin here.
Compound | GI50
CCC1=CCC23C(=O)C=CC(=O)C2(C1)C(=O)c1cccc(OC)c1C3=O (centres undefined) | 18.3 µM (inactive)
N=C(N)NS(=O)(=O)c1ccc(NC(=O)c2cccc3c(NNc4ccc(S(N)(=O)=O)cc4)c4ccccc4nc23)cc1 | 99.3 µM (inactive)
O=C(O)Cc1cccc2c1OC(c1ccccc1)C(Cl)(C(=O)c1ccccc1)C2=O (centres undefined) | 10.5 µM (inactive)

Your task in this section: give GI50 for each listed record.
1. COC1=CC2(C=CC1=O)c1cc(OC)c(OC)cc1CCN2C(=O)c1ccccc1 (centres undefined)
2. O=C(O)C(Cl)(Cl)Cl
3. [O-]c1c2c(nn1-c1ccc(Cl)cc1)c1ccccc1c[n+]2Cc1ccccc1
4. COC(=O)C(C(=O)C(=O)Nc1c(C)cccc1C(C)(C)C)c1nc2ccc(Cl)cc2nc1O (centres undefined)
5. CC(C)Cc1cccc(C(C)C)c1NC(=O)CCC(=O)N/N=C1\C(=N/NC(=O)CCC(=O)Nc2c(C(C)C)cccc2C(C)C)C(c2ccc3c(c2)OCO3)Oc2ccccc21 (centres undefined)
6. COc1ccc(N2C(=O)C3c4[nH]c5ccccc5c4C4CCC(C(C)C)CC4C3C2=O)cc1 (centres undefined)

[out]
1. > 100 µM (inactive)
2. > 100 µM (inactive)
3. > 100 µM (inactive)
4. > 100 µM (inactive)
5. 43.2 µM (inactive)
6. > 100 µM (inactive)

---

Tested on: MOLT-4
Protocol notes: NCI tumour cell line growth inhibition, 48 h
The source made the active and inactive calls. No stated cut-off is given here; in the data, active = GI50 up to about 1.1 µM and inactive = higher.
Provide the reported GI50 of each item.

Compound | Result
COc1ccccc1/N=N/C(=N/NC(=O)c1ccc(C)cc1)c1ccc(N(CCC#N)CCC#N)cc1OC | 19.1 µM (inactive)
CCCCCC(=O)c1ccc2[nH]c3c(C)cc([N+](=O)[O-])c(C)c3c2c1 | > 100 µM (inactive)

Your task in this section: give GI50 for each listed record.
1. O=C1c2ccc(O)cc2OC(c2cc(O)c(O)c(O)c2)C1O (stereo not given) [DIHYDROBINETIN]
2. Cc1ccccc1/N=C/c1ccc(N(CCC#N)S(=O)(=O)c2ccccc2)cc1
3. CC1=C(c2cc(C(=O)Nc3cccc(C(F)(F)F)c3)nc(NC#N)n2)Sc2ccccc2N1

[out]
["19.1 µM (inactive)", "> 100 µM (inactive)", "> 100 µM (inactive)"]

Your task in this section: give GI50 for each listed record.
1. Cc1ccc(C)n1-c1ccccc1C1C=Cn2c(=O)oc3c(OC(C)C)c(OC(C)C)c(O)c1c32 (stereo not given)
2. O=C(N/N=C\c1ccc2ccccc2c1)Nc1ccc([N+](=O)[O-])cc1
3. CC(C)(CNC(=O)/C(Cl)=C(/Cl)C(=O)O)CNC(=O)/C(Cl)=C(/Cl)C(=O)O
4. O=c1cc(CO)oc(C(O)c2ccccc2)c1O (stereo not given)
5. COC(=N)c1csc(C2OC(CO)C(O)C2O)n1 (stereo not given)
6. O=C1C2Nc3ccccc3SC2C(=O)N1c1ccccc1C(F)(F)F (stereo not given)
7. COc1ccc(/N=C2\S/C(=N\C(=N\c3ccccc3)SCc3ccccc3)N(c3ccccc3)\C2=N/c2ccc(OC)cc2)cc1
8. CCCC(=O)Nc1cn(COC)c(C(=O)N2C[C@H]3C[C@@]34C2=CC(=O)c2[nH]cc(C)c24)n1

[out]
1: 6.84 µM (inactive); 2: 20 µM (inactive); 3: 30.9 µM (inactive); 4: > 100 µM (inactive); 5: 61.9 µM (inactive); 6: 23.2 µM (inactive); 7: > 100 µM (inactive); 8: 0.553 µM (active)

---

Test system: HL-60
Protocol notes: NCI tumour cell line growth inhibition, 48 h
Calls of active or inactive are those of the source. Rule as the data show it: active = GI50 up to about 1.1 µM and inactive = higher.
Parameter call: string, one of y (active), n (inactive)

Example results:
Molecule | Class
COc1cc2cc(C(=O)N3CC(COS(C)(=O)=O)c4ccc(NC(=O)OCc5ccccc5)cc43)[nH]c2c(OC)c1OC (stereo unspecified) | n
CSc1nc2c(c(=O)n1C)N=C(c1ccccc1)[C@H](C(CC(=O)c1ccccc1)c1ccccc1)C(c1ccccc1)N2 (stereo partly specified) | n

[in] Entry `Cc1ccc(S(=O)(=O)Nn2c(-c3ccccc3)c(C#N)c(-c3ccc([N+](=O)[O-])cc3)c(C#N)c2=O)cc1` : call = ?
[out] n

[in] Next up: `COC(=O)NN=C1C(C)(C)C(=O)C1(C)C`
[out] n

[in] Next up: `C/C(=N\NC(=S)Nc1ccc([N+](=O)[O-])cc1S(=O)(=O)O)c1ccccn1`
[out] n

[in] Next up: C=C1CCC2CC1[C@@H](C(=O)c1c[nH]c3ccccc13)NC2(C)C (stereo partly specified)
[out] n

[in] Next up: `O=C(N/N=C\c1ccc2ccccc2c1)Nc1ccc([N+](=O)[O-])cc1`
[out] n

---

System: 786-0
Protocol notes: NCI tumour cell line growth inhibition, 48 h
Active and inactive are the calls of the source. Cut-off read from the data, not from the text of the source: active = GI50 up to about 1.1 µM and inactive = higher.
Provide the reported GI50 of each item.

Example entries begin here.
Compound | GI50
COC(=O)C1(F)C(=O)NC(=O)NC1OC (configuration not stated) | 39.7 µM (inactive)
CCCCCC(=O)c1ccc2[nH]c3c(C)cc([N+](=O)[O-])c(C)c3c2c1 | 36.1 µM (inactive)
S=C1Nc2cnc3ccccc3c2SC1c1ccccc1 (configuration not stated) | > 100 µM (inactive)
COc1cc2cc(C(=O)N3CC(COS(C)(=O)=O)c4ccc(NC(=O)OCc5ccccc5)cc43)[nH]c2c(OC)c1OC (configuration not stated) | > 100 µM (inactive)
COC(=O)C1=C(c2ccc(Cl)cc2)C(O)NC(NN)=N1 (configuration not stated) | > 100 µM (inactive)

Your task in this section: give GI50 for each listed record.
1. CC1=C(c2cc(C(=O)Nc3cccc(C(F)(F)F)c3)nc(NC#N)n2)Sc2ccccc2N1
2. Cc1ccc(C(=O)/C=C2/Nc3ccccc3NC2=O)c(C)c1
3. CN1C/C(=C\c2ccc(C(=O)O)cc2)C(=O)/C(=C/c2ccc(C(=O)O)cc2)C1

[out]
1. 97.5 µM (inactive)
2. 4.19 µM (inactive)
3. > 100 µM (inactive)

---

Provide the reported GI50 of each item.
Test system: KM-20L2
Protocol notes: NCI tumour cell line growth inhibition, 48 h
Calls of active or inactive are those of the source. Rule as the data show it: active = GI50 up to about 1.1 µM and inactive = higher.

Your task in this section: give GI50 for each listed record.
1. CCN(CC)CCC(=O)O[C@H]1CC[C@H](CC(C)[C@H]2CC(=O)C(C)C=C(C)[C@H](OC(=O)CCN(CC)CC)C(OC)C(=O)[C@@H](C)CC(C)/C=C/C=C/C=C(C)C(OC)CC3CC[C@H](C)[C@](O)(O3)C(=O)C(=O)N3CCCCC3C(=O)O2)CC1OC (some centres undefined)
2. S=C(N/N=C/c1ccccc1)NC12CC3CC(CC(C3)C1)C2

[out]
1.6 µM (inactive)
7.08 µM (inactive)

Your task in this section: give GI50 for each listed record.
1. COC(=O)c1ccc(/N=N/N(C)COc2ccc(Br)cc2)cc1
2. CC(C)NC(=O)CCN(C(=O)O)S(=O)(=O)c1ccc(NC(=O)c2ccccc2)cc1
3. CC12CCc3ccccc3C1=NNC(=O)C2 (centres undefined)
4. Sc1nc(S)nc(Oc2ccc(Cl)c(Cl)c2)n1
5. COC(=O)C1=C(OC)c2cc3c(cc2C(c2cc(OC)c(OC)c(OC)c2)C1C(=O)OC)OCO3 (centres undefined)
6. O=C(CSc1nnc(Cc2ccccc2)o1)Nc1ccc([N+](=O)[O-])cc1
7. COC(=O)CCC(NC(=S)N/N=C/c1ccco1)C(=O)OC (centres undefined)

[out]
1: > 81.1 µM (inactive); 2: > 100 µM (inactive); 3: > 100 µM (inactive); 4: 33.6 µM (inactive); 5: > 100 µM (inactive); 6: > 100 µM (inactive); 7: > 100 µM (inactive)

---

Tested on: OVCAR-8
Protocol notes: NCI tumour cell line growth inhibition, 48 h
Activity calls are given as the source filed them. Rule as the data show it: active = GI50 up to about 1.1 µM and inactive = higher.
Provide the reported GI50 of each item.

Compound | Target desc | GI50
CC[C@@H](C)[C@H](NC(=O)[C@H](Cc1ccccc1)NCC(F)(F)F)C(=O)OC(C)(C)C | OVCAR-8 | > 100 µM (inactive)
COc1ccc2c(c1)CCCC(Br)C2=O (stereo unspecified) | OVCAR-8 | 3.98 µM (inactive)
COC1=CC(=O)c2c(O)ccc(O)c2C1=O | OVCAR-8 | 21.4 µM (inactive)
O=c1cc(CO)oc(C(O)c2ccccc2)c1O (stereo unspecified) | OVCAR-8 | > 100 µM (inactive)
O=C(O)C(Cl)(Cl)Cl | OVCAR-8 | > 100 µM (inactive)
CSC1=C(SC)SC(=C2SC3=C(SC(=C4SCCS4)S3)S2)S1 | OVCAR-8 | > 100 µM (inactive)
CC(CC(=O)O)(CC(=O)O)C(=O)O | OVCAR-8 | > 100 µM (inactive)
CN(/N=C/c1cccc2cccnc12)c1ccc(Cl)cc1[N+](=O)[O-] | OVCAR-8 | > 100 µM (inactive)
NCC1OC(n2cnc3c(N)ncnc32)CC1O (stereo unspecified) | OVCAR-8 | > 100 µM (inactive)
CC(C)[Si](OC1=CCCCCC12C(=O)N(C)c1ccccc12)(C(C)C)C(C)C (stereo unspecified) | OVCAR-8 | 21 µM (inactive)

Shift focus to the following entry.
[in] Item CCC1=NC(C(F)(F)F)(C(F)(F)F)N=C(/N=C(/N)N(C)C(C(C)C)P(=O)(OC(C)C)OC(C)C)O1 (stereo unspecified) has what recorded GI50?
[out] > 100 µM (inactive)

Source listed as ChEMBL document CHEMBL1201862.
